target: T1, His-tagged human CTLA-4 (CT4-H5229; Acro Biosystems) (human, UniProt P16410 36-161); test: SPR (Carterra), soluble human CTLA-4
T1 construct: bought soluble protein; also called soluble human CTLA-4; recombinant human CTLA-4; not shown: His tag
T1 sequence (P16410 36-161 limits assumed): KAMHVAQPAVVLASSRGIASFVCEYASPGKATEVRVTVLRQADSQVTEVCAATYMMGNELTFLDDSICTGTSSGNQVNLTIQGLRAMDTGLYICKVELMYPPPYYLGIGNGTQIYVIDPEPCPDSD
readout: Kd (nM)
All answers are understood in nM, so give the number only.

Would you please look over these solved cases?
| binder | unitsLabel | Kd |
| --- | --- | --- |
| antibody A1 (L1H1) (antibody, V domains shown, also called aCTLA-4.9; CTLA4.A1) VH: QVQLVESGGGVVQPGRSLRLSCAASGFTFSSFGMHWVRQAPGKGLEWVAVIWYDGRNKYYVDSVKGRFTISRDNSNNTLYLQMNSLRAEDTAVYYCARGEFFGEFFDYWGQGTLVTVSS VL: EIVLTQSPGTLSLSPGEGATLSCRASQSFSSNYLAWYQQKPGQAPRLLIYGASSRATGIPDRFSGSGSGTDFTLTISRLEPEDFAVYYCQQYGTSPFTFGPGTKVDIK | nM | 0.77 |
| antibody A8 (L8H8) (antibody, V domains shown, also called aCTLA-4.1) VH: QVQLVESGGGVVQPGRSLRLSCAASGFTFSRYGMHWVRQAPGKGLEWVAVIWYDGRNKYYADSVKGRFTISRDNSKNTLYLQMNSLRAEDTALYSCARAGELGPFDYWGQGTLVTVSS VL: EIVLTQSPGTLSLSPGERATLSCRASQSVSYLAWYQQKPGQAPRLLIYGASSRATGIPDRFSGSGSGTDFTLTISRLEPEDFAVYYCQQYGSSPWTFGQGTKVEIK | nM | 4.6 |
| antibody A5 (L5H5) (antibody, V domains shown, also called aCTLA-4.28; CTLA4.A5) VH: QVQLVESGGGVVQPGRSLRLSCAASGFTFSSYGMHWVRQAPGKGLEWVAVIWYDGNNKYYADSVKGRFTISRDNSKNTLYLQMYSLRAEDTAVYYCARGGILAAGIFDYWGQGTLVTVSS VL: EIVLTQSPGTLSLSPGDRATLSCRASQSGSSSYLAWYQQKPGQAPRLLIYGASSRATGIPDRFSGSGSGTDFTLTISRLEPEDFAVYYCQQYGTSPFTSGPGTKVDIK | nM | 4.6 |

Now for the binder whose Kd we want.
Lookup: Quote Kd reported for antibody A4 (L4H4) (antibody, V domains shown, also called aCTLA-4.29) VH: QVQLVESGGGVVQPGRSLRISCAASGFTFSSYGIHWVRQAPGKGLQWVAVIWYDGRNKYYADSVKGRFTISRDNSKNTLYLQMNSLRAEDTAVYYCSRSGSFGAFDIWGQGTMVTVSS VL: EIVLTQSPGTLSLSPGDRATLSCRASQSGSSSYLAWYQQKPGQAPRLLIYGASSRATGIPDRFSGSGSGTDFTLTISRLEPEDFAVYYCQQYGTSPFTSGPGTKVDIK please.
Found: 3
